Protocol Text: Solubility of the compound at pH 9
Type: physicochemical
Protocol Conditions: buffer
Readout Name: solubility (µg/mL)

A: CC(C)(C)c1ccc(S(=O)(=O)Nc2ccc(Cl)cc2C(=O)c2cc[n+]([O-])cc2)cc1 [VERCIRNON]
B: CC(C)(C)c1ccc(S(=O)(=O)Nc2ccc(Cl)cc2-c2nccnc2NCCO)cc1
// query Which numeric solubility is bigger, that of A or that of B ? Could you answer with the label of the item you picked?
// result B
(B: 1100 µg/mL, A: 51 µg/mL)

----------
Protocol Text: Clearance in mouse liver microsomes
Assay type: ADME
Protocol Conditions: read-out: CLH
Readout Name: CLint scaled (mL/min/kg)

A: CC(C)(C)c1ccc(S(=O)(=O)Nc2ccc(Cl)cc2C(=O)c2cc[n+]([O-])cc2)cc1 [VERCIRNON]
B: CC(C)(C)c1ccc(S(=O)(=O)Nc2ccc(Cl)cc2-c2nccnc2NCCO)cc1
// query Which numeric CLint scaled is bigger, that of A or that of B ? Could you answer with the label of the item you picked?
// result A

----------
Protocol Text: Terminal half life in iv and po dosed mouse
Type: ADME, organism-based
Protocol Conditions: in vivo, read-out: beta t1/2 (converted)
Readout Name: half-life (h)

Molecule	half-life [h]
CC(C)(C)c1ccc(S(=O)(=O)Nc2ccc(Cl)cc2-c2nccnc2NCCO)cc1	1.2
CC(C)(C)c1ccc(S(=O)(=O)Nc2ccc(Cl)cc2C(=O)c2cc[n+]([O-])cc2)cc1 [VERCIRNON]	1.3

----------
Protocol Text: Oral bioavailability in mouse
Type: ADME, organism-based
Protocol Conditions: in vivo
Readout Name: bioavailability (%)

P: CC(C)(C)c1ccc(S(=O)(=O)Nc2ccc(Cl)cc2-c2nccnc2NCCO)cc1
Q: CC(C)(C)c1ccc(S(=O)(=O)Nc2ccc(Cl)cc2C(=O)c2cc[n+]([O-])cc2)cc1
// query Between item P and item Q , which reported bioavailability is smaller? Could you answer with the label of the item you picked?
// result Q

----------
Sequence of the target: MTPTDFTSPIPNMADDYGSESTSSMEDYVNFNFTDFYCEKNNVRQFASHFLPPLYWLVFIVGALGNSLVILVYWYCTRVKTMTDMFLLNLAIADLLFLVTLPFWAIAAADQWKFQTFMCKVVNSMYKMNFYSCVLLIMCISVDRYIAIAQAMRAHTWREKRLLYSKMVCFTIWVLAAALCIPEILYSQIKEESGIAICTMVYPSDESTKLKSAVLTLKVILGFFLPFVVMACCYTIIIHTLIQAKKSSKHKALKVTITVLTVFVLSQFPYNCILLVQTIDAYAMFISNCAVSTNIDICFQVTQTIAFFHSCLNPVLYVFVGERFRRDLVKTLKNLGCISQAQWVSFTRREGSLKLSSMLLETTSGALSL
Readout Name: IC50 (nM)

Answered cases to consult:
1) CC(C)(C)c1ccc(S(=O)(=O)Nc2ccc(Cl)cc2-c2nncc(N3CCOCC3)c2N)cc1 26
2) CC(C)(C)c1ccc(S(=O)(=O)Nc2ccc(Cl)cc2-c2nccnc2NCCO)cc1 34
3) CNc1nccnc1-c1cc(Cl)ccc1NS(=O)(=O)c1ccc(C(C)(C)C)cc1 25
4) CC(C)(C)c1ccc(S(=O)(=O)Nc2ccc(Cl)cc2-c2nccc(C(N)=O)c2O)cc1 52
5) CCNc1nccnc1-c1cc(Cl)ccc1NS(=O)(=O)c1ccc(C(C)(C)C)cc1 421

A: CC(C)(C)c1ccc(S(=O)(=O)Nc2ccc(Cl)cc2-c2nc(N)ncc2O)cc1
B: CC(C)(C)c1ccc(S(=O)(=O)Nc2ccc(Cl)cc2-c2ncccc2CN)cc1
// query Which numeric IC50 is bigger, that of A or that of B ? Could you answer with the label of the item you picked?
// result B

A: CC(C)(C)c1ccc(S(=O)(=O)Nc2ccc(Cl)cc2-c2ncncc2N)cc1
B: CC(C)(C)c1ccc(S(=O)(=O)Nc2ccc(Cl)cc2-c2ncccc2CO)cc1
// query Between item A and item B , which reported IC50 is smaller? Could you answer with the label of the item you picked?
// result A
(A: 3.2 nM, B: 89 nM)

----------
Protocol Text: Plasma protein binding in human
Format: ADME, cell-free
Protocol Conditions: read-out: PPB (converted)
Readout Name: fraction unbound

A: CC(C)(C)c1ccc(S(=O)(=O)Nc2ccc(Cl)cc2-c2nccnc2NCCO)cc1
B: CC(C)(C)c1ccc(S(=O)(=O)Nc2ccc(Cl)cc2C(=O)c2cc[n+]([O-])cc2)cc1
// query Between item A and item B , which reported fraction unbound is smaller? Could you answer with the label of the item you picked?
// result B
(B: 0.009, A: 0.016)

----------
Protocol Text: Lipophilicity, log D of the compound
Assay type: physicochemical
Protocol Conditions: octanol/water
Readout Name: logD
Just the number, please, no unit attached.

// query What does the record list as logD for CC(C)(C)c1ccc(S(=O)(=O)Nc2ccc(Cl)cc2C(=O)c2cc[n+]([O-])cc2)cc1 ?
// result 3.7
